Assay Notes: OD615 S. cerevisiae growth inhibition, permissive medium, pilot counter-assay, permissive growth control for S. cerevisiae lifespan shortening project (AID 705)
Measurement Setup: OD615, 24 h, at 10 µM, hits give high values
Label scheme for growth inhibition: lower than -10% is No, -10% and above is Yes.

Worked cases, answers included:
Molecule: CCOC(=O)c1c(NC(=O)OC)sc(C(=O)N(CC)CC)c1C
Class Label: No
--
Molecule: COc1ccc(OC)c(Nc2cc(C)nc3nc(C)nn23)c1
Class Label: Yes
--
Molecule: CCc1ccc(C2CC(=O)N3CN(c4ccccc4)CSC3=C2C#N)cc1 (centres undefined)
Class Label: Yes

stdin: Has `Cc1cccc(NC(=O)Cn2cnc3c(cnn3-c3ccc(F)cc3)c2=O)c1C` a recorded growth inhibition greater than or equal to -10%?
stdout: Yes

stdin: # check: growth inhibition of CCOCCCNC(=O)C1CCC(CNS(=O)(=O)c2ccc(F)cc2)CC1 (centres undefined) is greater than or equal to -10%
stdout: Yes

stdin: Hi, just wondering whether `Cn1c(=O)oc2cc(S(=O)(=O)NCCN3CCN(c4ccccc4F)CC3)ccc21` shows growth inhibition of -10% or higher.
stdout: No

stdin: Evaluate `CCc1cccc(OCCCCNCCOC)c1` : growth inhibition at minimum -10%?
stdout: Yes

stdin: Does growth inhibition meet or surpass -10% for CCOCCCNC(=O)C(NC(=O)C1CCC(=O)N1)c1ccc(C)cc1 (centres undefined) ?
stdout: Yes

stdin: Answer whether growth inhibition of `COc1cccc(-c2nnc(NC(=O)C3CCCCC3)o2)c1` is greater than or equal to -10%.
stdout: No

stdin: Would you say O=C(NCCC1=CCCCC1)C1CCCN(S(=O)(=O)c2cccc3cccnc23)C1 (centres undefined) shows growth inhibition at minimum -10%?
stdout: No

stdin: Does `COc1cccc(-c2csc(NC(=O)C3CC3)n2)c1` have a reported growth inhibition of at least -10%?
stdout: Yes

stdin: Does the molecule CC1Cc2ccccc2N1Cc1nc2scc(-c3cccs3)c2c(=O)[nH]1 (centres undefined) have recorded growth inhibition that is -10% or more?
stdout: Yes

stdin: Please tell me: is the molecule CC1CCCN(C(=O)CNC(=O)Cn2ccc3ccccc3c2=O)C1 (centres undefined) at or over -10% in terms of growth inhibition?
stdout: No

###

Assay Notes: growth suppression of beta-catenin knockout HCT116, pilot screen, human colon tumor cells (AID 823);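 further: 0% = wells killed by 20 µM Hyamine and 100% = untreated DMSO cell wells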
Measurement Setup: CellTiter-Glo, 60 h, at 10 µM, hits give low values
Results filed as inconclusive are left out.
List of viability values.
Express your answer in %, writing the number without its unit.

compound O=C(Nc1ccc2c(c1)OCCO2)c1ccc(NC(=O)C2CCCO2)cc1 (stereo unspecified) , viability observed: 72.7

###

Assay Notes: inhibitors of the yeast RAM network, pilot screen, dse1pr::URA3 reporter, 5-FOA selection (AID 869);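 further: 0% = DMSO wells with no growth and 100% = 10 µM 1-NA-PP1 with full growth; RAM network block rescues cells from 5-FOA so hits raise OD615 growth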
Measurement Setup: S. cerevisiae dse1pr::URA3 5-FOA growth, OD615, 2 d; at 10 µM; hits give high values; strain carries analog-sensitive mutant Cbk1 kinase
Let's look at some molecules and their measured inhibition.
The response must be a number in % with no trailing unit.

In the examples that follow, each entry is paired with its recorded inhibition.
Molecule: Cc1nnc(NC(=O)CSc2nnc(Cc3cccn3C)n2-c2cccc(C(F)(F)F)c2)s1
Measurement Units: %
inhibition: 0.075
//
Molecule: CCCc1cc(C(=O)N(C2CCCCC2)C2CCCCC2)no1
Measurement Units: %
inhibition: 1.57
//
Molecule: COc1ccc(CNC(=O)CSc2nnnn2-c2ccc(O)cc2)cc1
Measurement Units: %
inhibition: 2.5
//
Molecule: CN1CCN(c2ccccc2NC(=O)C(Cc2ccccc2)n2cccc2)CC1 (stereo not drawn)
Measurement Units: %
inhibition: 2.68
//
Molecule: CC(=O)Nc1ccc(S(=O)(=O)N2CCN(c3cccc(C)c3C)CC2)cc1
Measurement Units: %
inhibition: 0.185
//
Molecule: Cc1nn(CC(=O)Nc2cccnc2N2CCOCC2)c(=O)c2ccccc12
Measurement Units: %
inhibition: 1.22
//
Molecule: CCOC(=O)CSC1=C(C#N)C(c2ccccc2Cl)C(C(=O)OC)C(=O)N1 (stereo not drawn)
Measurement Units: %
inhibition: 0.14
//
Molecule: CN(Cc1ccccc1)C(=O)COC(=O)c1ccc2c(c1)OCO2
Measurement Units: %
inhibition: 0.11
//
Molecule: CCSc1sccc1C1C(C#N)=C(N)N(c2cccnc2)C2=C1C(=O)CC(C)(C)C2 (stereo not drawn)
Measurement Units: %
inhibition: 0.9
//
Molecule: O=C(Nc1nnc(-c2ccccc2)o1)Nc1ccccc1Cl
Measurement Units: %
inhibition: 0.165

The value of inhibition measured for the molecule `COc1cc(NC(=O)c2cc3ccccc3o2)c(OC)cc1Cl` turned out to be 3.16

Quick note, inhibition for `CCOc1ccc(Oc2nc(NCC(C)C)nc(OC)n2)nn1` landed at 2.14
